Assay Method Text: folding enthalpy; higher = less favourable; fluorescence melt of hairpins on a sequencing array, two-state fit
Condition Parameters: sodium 0.088 M
Listed here are sequences together with their documented folding enthalpy.
Number only, in kcal/mol; omit the unit.

Worked set:
GCTAGGCGAAAGCCCCGC ((..(((....)))..)); -7.78
GGGCTCGGAAACGGGCCC ((((.((....)).)))); -43.6
GTGATCGGAAACAATCAC (((((.(....).))))); -32.9
GAACAGCCGAAAGGCTTC (((..(((....)))))); -5.48
GAAGCCGAAAGGCCCTTC ((((((....)))..))); -11.8
GGGCCTGGAAACGGGTCC ((.((.(....).)).)); -26.3
GATCGTTTGACGATC ((((((...)))))); -24.6
GTCACGCGAAAGCGGAC (((.(((....)))))); -15.1
CGCCCCCGGAAACGGGCG (((..(((....)))))); -13.8
GATCAGCCATCTGATC ((((((....)))))); -37.4

Q: Reported folding enthalpy, sequence GATCCACGAAAGTGTATC (((.(((....))).))) : ____
Result: -24.2

Q: Now try GTAGGGGGAAACCCTTAC (((.(((....))).))) .
Result: -17.4

Q: Please do the same for GCTATCGAAAGATTCAGC ((((((....)))..))) as well.
Result: -11.6

Q: Another: GCTTTTGGAAACAAAGGC ((.((((....)))).))
Result: -28.9

Q: For GAGTATACGAAAGTACTC (((..(((....)))))) then?
Result: -15.7

Q: Try the sequence GGTGAATCGAAAGATACC (((..(((....))))))
Result: -16.8

Q: What about this sequence? GTTGACGAAAGTCGGAAC ((((((....)))..)))
Result: -8.87

Q: Next entry: GATCCACGCCTGGATC ((((((....))))))
Result: -36.9

Q: Now the same for GGTTGGGGAAACTCAACC (((((.(....).)))))
Result: -38.4

====

# Tm per entry
Assay Method Text: melting temperature; fluorescence melt of hairpins on a sequencing array, two-state fit, raised by 9.35 °C to match UV melts
Condition Parameters: sodium 0.088 M
Expressed in °C, but write only the number.

Examples from the recorded data:
GCGCCCGCGAAAGCGCGC (((..(((....)))))); 58.5
GCCGTCCCGAAAGGGGGC (((..(((....)))))); 49.4
GGCTATACGAAAGTAGCC (((..(((....)))))); 48.7

# ---- query sequence ----
Q: GET /values?readout=Tm&item= GATCATGTTATGATC ((((((...))))))
Result: 50.3

====

Assay Method Text: folding enthalpy; higher = less favourable; fluorescence melt of hairpins on a sequencing array, two-state fit
Condition Parameters: sodium 0.088 M
Is folding enthalpy at least -20 kcal/mol? Then true (1). If not, false (0).

Record excerpt, results attached:
GCCCAGCGAAAGCCGTGC ((.(.((....)).).)); true (1)
GCTTCCCGAAAGGGTAGC (((.(((....))).))); false (0)
GCGGGTAGCCGC ((((....)))); false (0)
GCGGATCGAAAGATACGC (((.(((....))).))); false (0)
GCCCTCGAAAGAGTCGGC ((((((....)))..))); false (0)

Q: Could you verify whether the entry GATCCTGTTTAGGATC ((((((....)))))) shows folding enthalpy of no less than -20 kcal/mol?
Result: false (0)

Q: Try the sequence GCAAGCGCGAAAGCGTGC (((..(((....))))))
Result: true (1)

Q: What about this sequence? GGACCAGGAAACTGGCCC ((.((((....)))).))
Result: false (0)

Q: Another sequence to check: GGTAGGGGAAACCCTATC (.(((((....))))).)
Result: false (0)

Q: Follow-up item: GATCCAGGGTTGGATC ((((((....))))))
Result: false (0)

Q: Input AGGTGGAAACACCT (((((....)))))
Result: true (1)

Q: How about this sequence: GTCTACGAAAGTAGGGAC ((((((....)))..)))
Result: true (1)

Q: Please give the result for GTCAGGGGAAACCCCGAC (((.(((....))).))) too.
Result: false (0)

Q: Thanks! And GCGTCTGGAAACGGACGC (((((.(....).))))) ?
Result: false (0)

Q: Moving on to GAGGTCGCGAAAGCGCTC (((..(((....))))))
Result: true (1)

Q: Now the same for GGTAACCGAAAGGTCACC (((.(((....))).)))
Result: false (0)

Q: Again, but for GGATCCGAAAGGAACTCC ((((((....)))..)))
Result: true (1)

Q: Follow-up entry: GAAACCCGAAAGGGCTTC (((.(((....))).)))
Result: false (0)

Q: Also GAGTTTGCGAAAGCACTC (((..(((....)))))) ?
Result: true (1)

Q: Entry to check: GATCACGGGGTGATC ((((((...))))))
Result: false (0)

Q: Would you kindly repeat that for GATCATAGCGATGATC ((((((....)))))) ?
Result: false (0)

Q: Try this sequence too: GATTCTGGAAACAGGATC (((.(((....))).)))
Result: false (0)

Q: Try the sequence GGAATAGGAAACTATTCC (((((((....)))))))
Result: false (0)

Q: Please do the same for GCAGGGCGAAAGCGATGC (((..((....))..))) as well.
Result: false (0)

Q: Check CGTACGGAAACGTGGACG ((((((....)))..))) too.
Result: true (1)
